Documented Change in blood pressure 1 hr. after treatment across a set of compounds
Tested on: spontaneously hypertensive rats
Test: Antihypertensive action (systolic blood pressure, caudal artery) in male spontaneously hypertensive rats
Format: in vivo, rat
Details: 10 mg/kg oral; 1 hr.; after minus before medication; * P < 0.05 vs control
measure: Change in blood pressure 1 hr. after treatment (mmHg)

{"compound": "CCOC(=O)C1=C(C)NC(C)=C(C(=O)OCCN2CCN(C(c3ccc(C)cc3)c3ccc(C)cc3)CC2)C1c1cccc(Cl)c1 (stereo not drawn)", "units": "mmHg", "endpoint_value": -51}
{"compound": "COC(=O)C1=C(C)NC(C)=C(C(=O)OCCN2CCN(C(c3ccccc3)c3ccccc3)CC2)C1c1cccc(C(F)(F)F)c1 (stereo not drawn)", "units": "mmHg", "endpoint_value": -59}
{"compound": "COC(=O)C1=C(C)NC(C)=C(C(=O)OCCN2CCN(c3ccccc3C)CC2)C1c1cccc([N+](=O)[O-])c1 (stereo not drawn)", "units": "mmHg", "endpoint_value": -69}
{"compound": "CCOC(=O)C1=C(C)NC(C)=C(C(=O)OCCN2CCN(C(c3ccc(C)cc3)c3ccc(C)cc3)CC2)C1c1cccc(C(F)(F)F)c1 (stereo not drawn)", "units": "mmHg", "endpoint_value": -46}
{"compound": "COC(=O)C1=C(C)NC(C)=C(C(=O)OCCN2CCN(C(c3ccccc3)c3ccccc3)CC2)C1c1cccc2nonc12.Cl.Cl (stereo not drawn)", "units": "mmHg", "endpoint_value": -98}
{"compound": "CCOC(=O)C1=C(C)NC(C)=C(C(=O)OCCN2CCN(C(c3ccccc3)c3ccccc3)CC2)C1c1cccc([N+](=O)[O-])c1 (stereo not drawn)", "units": "mmHg", "endpoint_value": -99}

---

Assay: Acute toxicity in male and female Wistar rats
Settings: in vivo; oral; male rat; observed 7 days
measure: LD50 at 168 h

{"compound": "COC(=O)C1=C(C)NC(C)=C(C(=O)OCCN2CCN(C(c3ccccc3)c3ccccc3)CC2)C1c1cccc([N+](=O)[O-])c1.Cl.Cl (stereo not shown)", "measure": "LD50 at 168 h", "endpoint_value": "250 to 500 mg/kg"}

---

Tested on: spontaneously hypertensive rats
Assay: Antihypertensive action (systolic blood pressure, caudal artery) in male spontaneously hypertensive rats
Assay type: in vivo, rat
Settings: 10 mg/kg oral; measured 1, 5, 8 and 24 hours after administration
Protocol: Male spontaneously hypertensive rats aged 10 to 11 weeks were used (in groups of 3 to 6 individuals). […] Each test compound was suspended in a 5% solution of gum arabic and orally administered. The dosage was 10 mg/kg for all compounds. Animals in a control group was given the above solution of gum arabic only.
measure: Duration of antihypertensive effect

{"molecule": "COC(=O)C1=C(C)NC(C)=C(C(=O)OCCCN2CCN(C(c3ccccc3)c3ccccc3)CC2)C1c1cccc(Cl)c1 (centres unmarked) [Example 38]", "endpoint_value": "8 to 24 h"}
{"molecule": "COC(=O)C1=C(C)NC(C)=C(C(=O)OCCN2CCN(c3ccccc3C)CC2)C1c1cccc(Cl)c1 (centres unmarked) [Example 52]", "endpoint_value": "ca. 8 hrs."}
{"molecule": "COC(=O)C1=C(C)NC(C)=C(C(=O)OCCN2CCCN(C(c3ccccc3)c3ccccc3)CC2)C1c1cccc([N+](=O)[O-])c1 (centres unmarked) [Example 15]", "endpoint_value": "5 to 8 h"}
{"molecule": "COC(=O)C1=C(C)NC(C)=C(C(=O)OC)C1c1ccccc1[N+](=O)[O-] [Nifedipine, reference compound]", "endpoint_value": "< 5 h"}
{"molecule": "COC(=O)C1=C(C)NC(C)=C(C(=O)OCCN2CCN(c3ccccc3)CC2)C1c1cccc([N+](=O)[O-])c1 (centres unmarked) [Example 53]", "endpoint_value": "ca. 8 hrs."}
{"molecule": "CCOC(=O)C1=C(C)NC(C)=C(C(=O)OCCN2CCN(C(c3ccc(C)cc3)c3ccc(C)cc3)CC2)C1c1cccc(Cl)c1Cl (centres unmarked) [Example 24]", "endpoint_value": "ca. 8 hrs."}
{"molecule": "COC(=O)C1=C(C)NC(C)=C(C(=O)OCCN2CCN(c3cccc(C(F)(F)F)c3)CC2)C1c1cccc([N+](=O)[O-])c1 (centres unmarked) [Example 18]", "endpoint_value": "8 to 24 h"}
{"molecule": "COC(=O)C1=C(C)NC(C)=C(C(=O)OCCN2CCN(C(c3ccccc3)c3ccccc3)CC2)C1c1cccc(C(F)(F)F)c1 (centres unmarked) [Example 23]", "endpoint_value": "8 to 24 h"}
{"molecule": "COCCOC(=O)C1=C(C)NC(C)=C(C(=O)OCCN2CCN(C(c3ccccc3)c3ccccc3)CC2)C1c1cccc([N+](=O)[O-])c1 (centres unmarked) [Example 30]", "endpoint_value": "8 to 24 h"}
{"molecule": "COC(=O)C1=C(C)NC(C)=C(C(=O)OCCN2CCN(c3cccc(Cl)c3)CC2)C1c1cccc(Cl)c1Cl (centres unmarked) [Example 46]", "endpoint_value": "8 to 24 h"}
